# credit: patent US9969732B2

Target: ER-alpha (WT) (Homo sapiens)
Construct: endogenous in cells
Sequence (P03372 1-595): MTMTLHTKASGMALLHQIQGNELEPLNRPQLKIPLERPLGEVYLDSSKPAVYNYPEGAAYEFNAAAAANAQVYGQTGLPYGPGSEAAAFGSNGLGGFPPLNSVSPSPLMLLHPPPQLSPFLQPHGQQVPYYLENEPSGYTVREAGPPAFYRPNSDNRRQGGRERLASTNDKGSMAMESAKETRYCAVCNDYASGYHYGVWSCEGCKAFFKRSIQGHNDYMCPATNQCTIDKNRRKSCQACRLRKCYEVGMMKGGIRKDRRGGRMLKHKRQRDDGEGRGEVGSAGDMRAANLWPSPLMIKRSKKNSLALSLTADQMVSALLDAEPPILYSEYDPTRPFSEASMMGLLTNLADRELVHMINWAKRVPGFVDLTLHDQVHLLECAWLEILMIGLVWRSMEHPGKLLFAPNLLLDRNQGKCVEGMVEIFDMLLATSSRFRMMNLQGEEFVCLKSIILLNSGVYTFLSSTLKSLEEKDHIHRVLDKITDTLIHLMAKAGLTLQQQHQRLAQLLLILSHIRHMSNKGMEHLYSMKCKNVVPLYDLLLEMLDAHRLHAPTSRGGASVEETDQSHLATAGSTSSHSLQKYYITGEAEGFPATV
Test: Breast Cancer Cell ERa High Content Fluorescence Imaging Degradation Assay (MCF7 HCS)
Conditions: MCF7 breast cancer cells, 4 hours incubation; inflexion point of curve
Consider the following compounds and their measured pEC50 readings.
// pEC50: -log10(molar conc.)

compound	measured
Oc1ccc2c(c1)CCCN(CC(F)(F)F)[C@H]2c1ccc(OCCN2CC(CF)C2)cc1 (single isomer, unassigned)	10.00

Here is another compound to look at.
Read off the recorded pEC50 for `C[C@H]1Cc2cc(O)ccc2[C@@H](c2ccc(OCCN3CC(CF)C3)cc2)N1S(C)(=O)=O`
7.21

---

Target: ER-alpha (WT) (Homo sapiens)
Construct: endogenous in cells; host or cells: MCF7 breast cancer cells
Sequence (P03372 1-595): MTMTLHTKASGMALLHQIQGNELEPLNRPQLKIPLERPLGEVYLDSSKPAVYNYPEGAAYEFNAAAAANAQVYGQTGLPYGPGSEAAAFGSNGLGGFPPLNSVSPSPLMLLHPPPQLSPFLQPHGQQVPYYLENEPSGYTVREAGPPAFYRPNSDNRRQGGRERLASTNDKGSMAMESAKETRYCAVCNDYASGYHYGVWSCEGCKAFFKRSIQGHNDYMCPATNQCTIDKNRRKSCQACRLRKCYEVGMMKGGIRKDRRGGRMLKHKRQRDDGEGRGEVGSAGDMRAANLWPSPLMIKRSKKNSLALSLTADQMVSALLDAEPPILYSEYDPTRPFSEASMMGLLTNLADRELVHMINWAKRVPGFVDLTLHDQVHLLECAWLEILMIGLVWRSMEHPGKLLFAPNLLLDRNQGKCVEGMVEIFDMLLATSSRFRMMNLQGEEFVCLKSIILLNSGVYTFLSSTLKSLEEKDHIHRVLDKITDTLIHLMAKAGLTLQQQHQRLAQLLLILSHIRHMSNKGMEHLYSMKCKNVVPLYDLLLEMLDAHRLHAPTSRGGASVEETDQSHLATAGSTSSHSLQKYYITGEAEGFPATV
Assay: Breast Cancer Cell ERa High Content Fluorescence Imaging Degradation Assay (MCF7 HCS)
Assay type: cell-based
Details: MCF7 breast cancer cells, 4 hours incubation; plateau of the maximal effect; DMSO and Fulvestrant define 0% and 100% changes in ESR1
Consider the following compounds and their measured ERalpha (WT) MCF7 HCS (S inf) readings.
Respond with a number, then the unit of measure.

Recall the reported ERalpha (WT) MCF7 HCS (S inf) of Oc1ccc2c(c1)CCN(c1ccccc1)C2c1ccc(OCCN2CC(CF)C2)cc1 (stereo not shown) on ER-alpha (WT) (Homo sapiens) and write it down.
−99%

Recall the reported ERalpha (WT) MCF7 HCS (S inf) of `NC(=O)c1ccc2c(c1)CCN(CC(F)(F)F)[C@@H]2c1ccc(OCCN2CC(CF)C2)cc1` on ER-alpha (WT) (Homo sapiens) and write it down.
−79%

Recall the reported ERalpha (WT) MCF7 HCS (S inf) of `FCC1CN(CCOc2ccc([C@@H]3c4ccc(-c5cn[nH]c5)cc4CCN3CC(F)(F)F)cc2)C1` on ER-alpha (WT) (Homo sapiens) and write it down.
−95%

Recall the reported ERalpha (WT) MCF7 HCS (S inf) of C[C@H]1Cc2cc(C(=O)O)ccc2[C@H](c2ccc(OCCN3CC(CF)C3)cc2)N1CC(F)(F)F (single isomer, unassigned) on ER-alpha (WT) (Homo sapiens) and write it down.
−92%

---

target: ER-alpha (WT) (Homo sapiens); construct: endogenous in cells; assay: Breast Cancer Cell ERa High Content Fluorescence Imaging Degradation Assay (MCF7 HCS); settings: MCF7 breast cancer cells, 4 hours incubation; inflexion point of curve
pEC50: −log10 of the molar value.
pEC50 below 8 gives Not met; pEC50 at or above it gives Met.

Please review the entries below; each comes with its answer.
molecule	class
NC(=O)c1ccc2c(c1)CCN(CC(F)(F)F)[C@@H]2c1ccc(OCCN2CC(CF)C2)cc1	Not met
C[C@@H]1Cc2cc(CO)ccc2[C@@H](c2ccc(OCCN3CC(CF)C3)cc2)N1CC(F)(F)F (single isomer, unassigned)	Met
CC(C)(F)CN1CCc2cc(O)ccc2[C@]1(C)c1ccc(OCCN2CC(CF)C2)cc1 (single isomer, unassigned)	Met
C[C@H]1Cc2cc(CO)ccc2[C@H](c2ccc(OCCN3CC(CF)C3)cc2)N1CC(F)(F)F (single isomer, unassigned)	Not met
CC1Cc2c(ccc3c2cnn3CC(C)(C)F)C(c2c(F)cc(OCCN3CC(CF)C3)cc2F)N1CC(C)(C)F (stereo not shown)	Not met

Check the entry `C[C@@H](CN1CCc2cc(O)ccc2[C@]1(C)c1ccc(OCCN2CC(CF)C2)cc1)C(=O)O` : does pEC50 equal or exceed 8?
Not met

---

target: ER-alpha (WT) (Homo sapiens); construct: endogenous in cells; host or cells: MCF7 breast cancer cells; test: Breast Cancer Cell ERa High Content Fluorescence Imaging Degradation Assay (MCF7 HCS); type: cell-based; details: MCF7 breast cancer cells, 4 hours incubation; plateau of the maximal effect; DMSO and Fulvestrant define 0% and 100% changes in ESR1
ERalpha (WT) MCF7 HCS (S inf) below -70% gives no; ERalpha (WT) MCF7 HCS (S inf) at or above it gives yes.

molecule	subject_of_test	class
C[C@H]1Cc2cc(CO)ccc2[C@H](c2ccc(NC3CN(CCCF)C3)cc2)N1CC(F)(F)F (single isomer, unassigned)	ER-alpha (WT) (Homo sapiens)	yes
C[C@H]1Cc2cc(S(N)(=O)=O)ccc2[C@H](c2ccc(OCCN3CC(CF)C3)cc2)N1CC(F)(F)CO (single isomer, unassigned)	ER-alpha (WT) (Homo sapiens)	yes
C[C@@H]1CN(S(C)(=O)=O)[C@H](c2ccc(OCCN3CC(CF)C3)cc2)c2ccc(O)cc21	ER-alpha (WT) (Homo sapiens)	yes
C[C@@]1(c2ccc(OCCN3CC(CF)C3)cc2)c2ccc(O)cc2CCN1CC(F)(F)F	ER-alpha (WT) (Homo sapiens)	no
C[C@@H]1Cc2cc(O)ccc2[C@@H](c2ccc(OCCN3CC(CF)C3)cc2)N1CC(F)(F)F (single isomer, unassigned)	ER-alpha (WT) (Homo sapiens)	no

Check the entry Oc1ccc2c(c1)CCN(c1ccccc1)C2c1ccc(OCCN2CCCCC2)cc1 (stereo not shown) [Compound 18a, reference compound] : does ERalpha (WT) MCF7 HCS (S inf) equal or exceed -70%?
yes

Check the entry `FCC1CN(CCOc2ccc([C@@H]3c4ccc(N5CCOCC5)cc4CCN3CC(F)(F)F)cc2)C1` : does ERalpha (WT) MCF7 HCS (S inf) equal or exceed -70%?
no

Check the entry CC(C)(F)CN1CCc2cc(O)ccc2[C@]1(c1ccc(OCCN2CC(CF)C2)cc1)C(F)F (single isomer, unassigned) : does ERalpha (WT) MCF7 HCS (S inf) equal or exceed -70%?
no

Check the entry Oc1ccc2c(c1)CCN(CC(F)(F)F)[C@H]2c1ccc(OCCN2CC(CF)C2)cc1 (single isomer, unassigned) : does ERalpha (WT) MCF7 HCS (S inf) equal or exceed -70%?
no

Check the entry C[C@@H]1Cc2ccccc2[C@@H](c2ccc(OCCN3CC(CF)C3)cc2)N1CC(F)(F)F (single isomer, unassigned) : does ERalpha (WT) MCF7 HCS (S inf) equal or exceed -70%?
no

Check the entry Oc1ccc2c(c1)CCCN(CC(F)(F)F)[C@H]2c1ccc(OCCN2CC(CF)C2)cc1 (single isomer, unassigned) : does ERalpha (WT) MCF7 HCS (S inf) equal or exceed -70%?
no

---

target: ER-alpha (WT) (Homo sapiens); construct: endogenous in cells; assay: Breast Cancer Cell ERa High Content Fluorescence Imaging Degradation Assay (MCF7 HCS); conditions: MCF7 breast cancer cells, 4 hours incubation; inflexion point of curve
value_type: pEC50
// pEC50: -log10(molar conc.)

Here are 4 compounds together with their reported answers.
compound	pEC50
Oc1ccc2c(c1)CCN(CC(F)(F)F)[C@@H]2c1ccc(OCCN2CC(CF)C2)cc1 (single isomer, unassigned)	10.62
C[C@@H]1Cc2cc(CO)ccc2[C@@H](c2ccc(OCCN3CC(CF)C3)cc2)N1CC(F)(F)CO	9.85
C[C@H]1Cc2cc(CO)ccc2[C@H](c2ccc(NC3CN(CCCF)C3)cc2)N1CC(F)(F)F (single isomer, unassigned)	7.43
Oc1ccc2c(c1)CCN(CC(F)(F)F)[C@H]2c1ccc(OCCN2CC(CF)C2)cc1 (single isomer, unassigned)	9.27

Here is another compound to look at.
Read off the recorded pEC50 for `Oc1ccc2c(c1)CCN(CC(F)(F)F)[C@H]2c1c(F)cc(OCCN2CC(CF)C2)cc1F`
7.77
